# measurement.notes: Caco-2 bidirectional permeability assay
# Assay type: in vitro ADME
# experimental.setup: human, Caco-2
property: Papp B→A at 2 hr, 10 μM (×10⁻⁶ cm/s)
Output spec: scalar in ×10⁻⁶ cm/s, unitless text.

*Q* Tell me the measured Papp B→A at 2 hr, 10 μM of CC(=O)CC(c1ccccc1)c1c(O)c2ccccc2oc1=O (stereo not shown) [warfarin, reference compound] , please.
*A* 10.4

* * *

# measurement.notes: Microsomal stability / intrinsic clearance assay, mouse
# Assay type: in vitro ADME
# experimental.setup: liver microsomes, read-out: NADPH-Free CLint
# Method: Briefly, the compound was incubated with human or mouse microsomes in the presence or absence of NADPH. […] Data were converted to percent remaining by dividing by the time zero concentration value. In vitro half-life was determined based on the slope of the (first-order) decay curve and this value was converted to intrinsic clearance (CLint). […] For apical to basolateral (A→B) permeability, the compound was added to the apical (A) side and amount permeation determined on the basolateral (B) side. […]
property: microsomal CLint at 1 μM
Quick note: unit goes after the number.

*Q* Tell me the measured microsomal CLint at 1 μM of COc1cc2ncnc(Nc3ccc(Cl)cc3Cl)c2cc1OC [LDDN-0003499] , please.
*A* 15.8 µL/min/mg

* * *

# measurement.notes: Microsomal stability / intrinsic clearance assay, mouse
# Type: in vitro ADME
# experimental.setup: liver microsomes, read-out: NADPH-Depend. T1/2
property: half-life at 1 μM

*Q* Tell me the measured half-life at 1 μM of COc1cc2ncnc(Nc3ccc(Cl)cc3Cl)c2cc1OC [LDDN-0003499] , please.
*A* 16.6 min

Cited source for all entries: paper PMC4498792
